Source listed as the supplement of paper PMC10307832.

System: NCI-H1793
TEST_NAME: relative viability (nuclei count vs DMSO), 5 days (fraction); higher = more cells survive
CONDITION_SET: first compound 2.53 µM
METRIC: relative viability

1) Oc1nc(-c2ccc(C(F)(F)F)cc2)nc2c1CSCC2 [XAV939] + CS(=O)(=O)N1CCN(Cc2cc3nc(-c4cccc5[nH]ncc45)nc(N4CCOCC4)c3s2)CC1 [Pictilisib] (partner 1 µM)    0.363
2) Oc1nc(-c2ccc(C(F)(F)F)cc2)nc2c1CSCC2 [XAV939] + CCNC(=O)c1noc(-c2cc(C(C)C)c(O)cc2O)c1-c1ccc(CN2CCOCC2)cc1 [Luminespib] (partner 0.01 µM)    0.185
3) Oc1nc(-c2ccc(C(F)(F)F)cc2)nc2c1CSCC2 [XAV939] + Cc1nc(NC(=O)N2CCC[C@H]2C(N)=O)sc1-c1ccnc(C(C)(C)C(F)(F)F)c1 [Alpelisib] (partner 2 µM)    0.708
